Counter-ions that a name gives are not always drawn.
Here's a batch of molecules along with measured log10 Ki for plasmin (Homo sapiens).
measured endpoint: log10 Ki (log10 of the value in µM)

>>> value("N=C(NO)c1cccc(CC(NS(=O)(=O)c2ccc3ccccc3c2)C(=O)N2Cc3ccccc3CC2C(=O)O)c1 (racemic) [Compound 190, hydroiodide]")
2.08
>>> value("N=C(N)c1cccc(C[C@H](NS(=O)(=O)c2ccc3ccccc3c2)C(=O)N2CCC[C@@H]2C(=O)O)c1 [Compound 123, hydrochloride]")
1.98
>>> value("COC(=O)[C@H]1CCCN1C(=O)[C@H](Cc1cccc(C(=N)N)c1)NS(=O)(=O)c1ccc2ccccc2c1 [Compound 124, hydrochloride]")
1.04
>>> value("CN1CCN(C(=O)C(Cc2cccc(C(=N)N)c2)NS(=O)(=O)c2ccc3ccccc3c2)CC1 (racemic)")
1.49
>>> value("CC1CCN(C(=O)C(Cc2cccc(CN)c2)NS(=O)(=O)c2ccc3ccccc3c2)CC1 (racemic)")
1.43
>>> value("N=C(N)Nc1cccc(CC(NS(=O)(=O)c2ccc3ccccc3c2)C(=O)N2CCCCC2)c1 (racemic) [Compound 207, hydrochloride]")
1.23
>>> value("CC1CCN(C(=O)C(Cc2cccc(C(=N)N)c2)NC(=O)CNS(=O)(=O)c2ccc3ccccc3c2)CC1 (racemic)")
1.66

###

# LD50 at 168 h annotations
experiment description: in vivo
settings: mouse, iv
measured endpoint: LD50 at 168 h (mg/kg)

>>> value("COC(=O)[C@H](Cc1cccc(C(=N)N)c1)NC(=O)CNS(=O)(=O)c1ccc(C)cc1 [TAPAM, reference compound]")
103
>>> value("NCc1cccc(CC(NS(=O)(=O)c2ccc3ccccc3c2)C(=O)N2CCC(C(=O)O)CC2)c1 (racemic)")
100
